Data provenance is patent US20180185504A1.

Molecular target: T1, human PRLR on cells (endogenous on T47D, T47D#11, MCF7); introduced in HEK293/hPRLR/STAT5-Luc, 293/hPRLR, … (human, UniProt P16471 25-622)
T1 sequence: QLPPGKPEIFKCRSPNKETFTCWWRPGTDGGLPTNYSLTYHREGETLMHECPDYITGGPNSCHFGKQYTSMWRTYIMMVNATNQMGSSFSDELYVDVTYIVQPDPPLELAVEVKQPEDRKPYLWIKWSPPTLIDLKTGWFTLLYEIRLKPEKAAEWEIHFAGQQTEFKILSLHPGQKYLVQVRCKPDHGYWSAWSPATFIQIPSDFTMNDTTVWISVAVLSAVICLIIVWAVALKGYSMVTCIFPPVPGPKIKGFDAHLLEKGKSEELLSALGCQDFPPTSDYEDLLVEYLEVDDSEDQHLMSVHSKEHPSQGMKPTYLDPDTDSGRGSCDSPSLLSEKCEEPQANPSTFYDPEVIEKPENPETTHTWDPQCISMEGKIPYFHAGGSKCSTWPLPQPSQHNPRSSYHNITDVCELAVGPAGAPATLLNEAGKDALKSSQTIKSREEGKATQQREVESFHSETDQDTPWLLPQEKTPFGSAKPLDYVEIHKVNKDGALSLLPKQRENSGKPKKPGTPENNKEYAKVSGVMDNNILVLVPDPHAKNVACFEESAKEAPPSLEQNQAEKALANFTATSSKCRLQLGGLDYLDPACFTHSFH
Test: cell-based or functional assay
Recorded endpoint: IC50 of Blocking 5 nM PRL [M] (STAT5-Luc reporter, HEK293/hPRLR/STAT5-Luc cells) (M)

{"columns": ["Binder", "Number"],
 "data": [
  ["H1H6790P (antibody, human IgG1, V domains shown, human IgG1 Fc (H1H)) VH: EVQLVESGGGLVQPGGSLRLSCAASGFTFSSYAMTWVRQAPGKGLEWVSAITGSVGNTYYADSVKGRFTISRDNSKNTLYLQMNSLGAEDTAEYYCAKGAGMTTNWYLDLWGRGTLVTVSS VL: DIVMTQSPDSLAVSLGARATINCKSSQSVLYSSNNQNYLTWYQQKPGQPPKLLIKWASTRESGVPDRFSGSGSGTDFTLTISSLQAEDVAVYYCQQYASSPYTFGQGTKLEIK", "2.06e-10"],
  ["H1H6781P (antibody, human IgG1, V domains shown, human IgG1 Fc (H1H)) VH: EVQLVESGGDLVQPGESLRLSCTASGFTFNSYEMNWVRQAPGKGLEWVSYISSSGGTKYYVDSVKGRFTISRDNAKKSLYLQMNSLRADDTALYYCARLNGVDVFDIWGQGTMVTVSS VL: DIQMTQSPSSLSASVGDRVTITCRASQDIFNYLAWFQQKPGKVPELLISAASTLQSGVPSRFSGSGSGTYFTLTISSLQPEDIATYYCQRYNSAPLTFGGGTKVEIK", "2.7e-11"],
  ["H1H6958N2 (antibody, human IgG1, V domains shown, also called H2M6958N2) VH: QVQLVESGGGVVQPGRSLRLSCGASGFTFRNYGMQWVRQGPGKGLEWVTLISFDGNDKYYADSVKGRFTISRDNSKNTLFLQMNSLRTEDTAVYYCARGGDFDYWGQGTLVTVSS VL: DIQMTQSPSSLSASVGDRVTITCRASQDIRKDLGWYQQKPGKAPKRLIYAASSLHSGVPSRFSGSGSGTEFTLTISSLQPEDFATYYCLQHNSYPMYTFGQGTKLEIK", "1.98e-10"],
  ["H1H6975N (antibody, human IgG1, V domains shown, also called H2M6975N) VH: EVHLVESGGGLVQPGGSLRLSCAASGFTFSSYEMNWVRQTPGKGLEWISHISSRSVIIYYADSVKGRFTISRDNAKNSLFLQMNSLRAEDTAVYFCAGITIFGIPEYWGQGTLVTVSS VL: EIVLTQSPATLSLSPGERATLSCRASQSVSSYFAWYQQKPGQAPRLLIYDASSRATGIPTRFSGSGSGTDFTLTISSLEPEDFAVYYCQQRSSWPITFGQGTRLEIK", "2.41e-10"],
  ["H1H6785P (antibody, human IgG1, V domains shown, human IgG1 Fc (H1H)) VH: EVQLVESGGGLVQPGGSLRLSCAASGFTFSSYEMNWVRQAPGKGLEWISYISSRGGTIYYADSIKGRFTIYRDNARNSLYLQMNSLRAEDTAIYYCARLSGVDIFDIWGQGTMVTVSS VL: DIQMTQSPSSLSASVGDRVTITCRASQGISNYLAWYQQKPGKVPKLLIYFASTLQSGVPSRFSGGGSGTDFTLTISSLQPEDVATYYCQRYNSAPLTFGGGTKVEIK", "3.45e-10"]
]}
